- Tested on: TK-10 renal
- measurementDescription: NCI tumour cell line growth inhibition, 48 h
metricName: TGI

[[record]]
compound = "O=[N+]([O-])c1ccc(C(O)(C#CCN2CCCC2)c2ccccc2)cc1 (stereo not drawn)"
tgt = "TK-10 renal"
recordedmeasurement = "> 100 µM"

[[record]]
compound = "COc1cc2c(cc1F)C(c1ccccc1Cl)=Nc1c(n[nH]c1C)N2"
tgt = "TK-10 renal"
recordedmeasurement = "18.3 µM"

[[record]]
compound = "Fc1cccc(F)c1C(Nc1nncs1)Nc1nncs1"
tgt = "TK-10 renal"
recordedmeasurement = "> 100 µM"

[[record]]
compound = "O=C(O)c1ccccc1N=Nc1c(O)c(S(=O)(=O)O)cc2cc(S(=O)(=O)O)ccc12"
tgt = "TK-10 renal"
recordedmeasurement = "> 100 µM"

[[record]]
compound = "NC(N)=NCCC(O)(P(=O)(O)O)P(=O)(O)O"
tgt = "TK-10 renal"
recordedmeasurement = "> 100 µM"


Task item: Using the record for `CN(CCCNC(=O)c1cc(-c2ccccc2)nc2ccccc12)CCCNC(=O)c1cc(-c2ccccc2)nc2ccccc12` , report its TGI.
Reply: 14.9 µM

Task item: Using the record for `COc1ccc(Nc2ccnc(N3CCN(c4ccnc5cc(Cl)ccc45)CC3)n2)cc1` , report its TGI.
Reply: 7.95 µM

Task item: Using the record for COc1ccc(OC(=O)CC2Cc3cc(OC)c(OC)c(OC)c3-c3ccc(SC)c(=O)cc32)cc1 (stereo not drawn) , report its TGI.
Reply: > 100 µM

Task item: Using the record for C[C@@H]1O[C@@H](O[C@@H]2[C@@H](O)[C@H](OCCc3ccc(O)c(O)c3)O[C@H](CO)[C@H]2OC(=O)/C=C/c2ccc(O)c(O)c2)[C@H](O)[C@H](OC2OC[C@](O)(CO)[C@H]2O)[C@H]1O (stereo partly drawn) , report its TGI.
Reply: > 100 µM

Task item: Using the record for Cn1c(=O)n2n(c1=O)C(C)(C13CC4CC(CC(C4)C1)C3)C13CC4CC(CC1C4)CC23 (stereo not drawn) , report its TGI.
Reply: > 100 µM

Task item: Using the record for `Cc1ccccc1-n1c(N)c(-c2nc3ccccc3[nH]2)sc1=S` , report its TGI.
Reply: 85.8 µM
